- Test system: CEM cells HIV-1 protection, formazan growth assay
- Test protocol: NCI AIDS Antiviral Assay
- Measurement parameters: measured here: growth of uninfected CEM cells
Here, each record is paired with measured IC50 data.

Guide cases for IC50, answers given:
Compound | IC50
CC(C)CCCC(C)[C@H]1CCC2C3CCC4C[C@@H](CCCC(c5cc(Cl)c(O)c(C(=O)O)c5)c5cc(Cl)c(O)c(C(=O)O)c5)CC[C@]4(C)C3CC[C@@]21C (stereo partly drawn) | > 200 µM
O=C1NC(=O)C23CCCCc4cccc(c42)C(=O)C13 (stereo not drawn) | > 372 µM

Attention now turns to another entry.
Field request: IC50 | item: O=C1OC(C(O)CO)C(C(O)CO)OC1=O (stereo not drawn) > 200 µM

* * *

Here, each record is paired with measured IC50 data.
- Test system: CEM cells HIV-1 protection, formazan growth assay
- Test protocol: NCI AIDS Antiviral Assay
- Measurement parameters: measured here: growth of uninfected CEM cells
Numeric answer only, unit µM assumed.

Guide cases for IC50, answers given:
Compound | Numeric result
CCCCNC1=C(C(=O)OCC)/C(=N/NC(=O)c2ccccc2O)CO1 | 13.2
Oc1ccccc1C=Nc1ccc(SSc2ccc(N=Cc3ccccc3O)cc2)cc1 | 27.5

Attention now turns to another entry.
Field request: IC50 | item: COC(=O)/C=C(/Sc1nc(Cl)c(Cl)nc1N)C(=O)OC (tested in a mixture with another compound) 2.45

* * *

- System: CEM cells HIV-1 protection, formazan growth assay
- Test protocol: NCI AIDS Antiviral Assay
- Measurement parameters: measured here: growth of uninfected CEM cells
pIC50: −log10 of the molar value.
Experimental readout: pIC50

Molecule | pIC50
CN(C(=O)C12C3C4C1(C(=O)O)C1C2C3(C(=O)O)C41C(=O)N(C)C(C)(C)C)C(C)(C)C (stereo unspecified) | < 4.76
COC(=O)C1=NN2c3ccccc3C(=O)OCCC2(C)C1 (stereo unspecified) | < 3.70
CCc1cccc(C)c1NC(=O)CCc1nnc(SC)o1 | < 3.79
Clc1nc(Cl)nc(-c2ccccc2)n1 | < 3.70
Cc1ccc(Cc2c(=O)[nH]nc3ccccc23)cc1 | < 4.40

Attention now turns to another entry.
Field request: pIC50 | item: "CC1(C)OC[C@@H](O)[C@H](C#N)CO1" < 3.70

* * *

- Tested on: CEM cells HIV-1 protection, formazan growth assay
- Test protocol: NCI AIDS Antiviral Assay
- Measurement parameters: measured here: growth of uninfected CEM cells
pIC50: −log10 of the molar value.
Here, each record is paired with measured pIC50 data.

Molecule | Experimental readout | Result
Cn1cc(NC(=O)c2cc(N)nn2C)cc1C(=O)Nc1ccc2cc(S(=O)(=O)O)cc(S(=O)(=O)O)c2c1 | pIC50 | < 3.70

Field request: pIC50 | item: "N#Cc1c(C#N)c(-c2ccccc2)n(Cc2ccccc2)c1N" < 3.70

Field request: pIC50 | item: "CC1=CC(=O)C(=CN2C(=O)/C(=C\c3cccnc3)NC2=S)C(=O)O1" < 3.70

Field request: pIC50 | item: "CN1C=C/C(=C/[N+](=O)[O-])N(C)C1=O" < 3.70

Field request: pIC50 | item: Cn1c2c(c3ccccc31)CC(=O)N1CCCC(C1)CC21OCCO1 (stereo not given) < 3.70

Field request: pIC50 | item: NC(=O)C1C(=O)c2cccc3c2C1CCCC3 (stereo not given) 4.16

Field request: pIC50 | item: CC(=O)OCC1OC(N=[N+]=[N-])C(OC(C)=O)C(OC(C)=O)C1OC1OC(COC(C)=O)C(OC(C)=O)C(OC(C)=O)C1OC(C)=O (stereo not given) < 4.27
